A set of compounds tested on MDA-MB-435, with measured GI50:
READOUT KIND: GI50

compound=c1ccc(C2=Nc3ccccc3N3CNN=C23)cc1 target=MDA-MB-435 reported_result="> 100 µM"
compound=Cn1cc(Nc2nccc(-c3ccc4c(c3)CN(C3COC3)CC[C@H]4NC(=O)c3cn(C(C)(C)C)nn3)n2)cn1 target=MDA-MB-435 reported_result="42.3 µM"
compound=COc1cc(C(=O)/C=C/c2cccnc2Nc2ccc(Cl)cc2)cc(OC)c1OC target=MDA-MB-435 reported_result="1.49 µM"
compound=Cc1cc2c(C(C)C)c(O)c(O)c(/C=N/O)c2c(O)c1-c1c(C)cc2c(C(C)C)c(O)c(O)c(/C=N/O)c2c1O target=MDA-MB-435 reported_result="2.78 µM"
compound="CCCCCCCCCCCCCCCC(=O)OCC1OC(OCCCC)[C@H](O[C@@H]2OC(C)C(OC(=O)CCC)C(O)C2O)C(O)C1O (stereo not given in full)" target=MDA-MB-435 reported_result="13.3 µM"
compound=CCN1C[C@@H](C)n2c(c(O)c3c(=O)n(Cc4ccc(F)c(Cl)c4)nc(C(=O)NC)c32)C1=O target=MDA-MB-435 reported_result="3.21 µM"
compound=Oc1ccc(/C=N/NC(=S)Nc2ccccc2)nc1 target=MDA-MB-435 reported_result="2.19 µM"
compound=Cc1ncnc2c1ccn2[C@@H]1C[C@H](Oc2cc(C(F)F)c(F)c3c2CNCC3)[C@@H](O)[C@H]1O target=MDA-MB-435 reported_result="> 100 µM"
compound=Cc1c(Br)c(Br)c2c3c1nc(N1CCNCC1)n3CCC2 target=MDA-MB-435 reported_result="1.73 µM"
compound=C=CCc1cc(O)ccc1O target=MDA-MB-435 reported_result="19.9 µM"

###

Tested on: HCC-2998 colon
Assay: NCI tumour cell line growth inhibition, 48 h
READOUT KIND: TGI (µM)

compound=O=C1NC(=S)NC(=O)C1=Cc1ccc([N+](=O)[O-])o1 readout_kind=TGI comparison_symbol=> reported_result=100
compound=CCP(C)(=O)CC readout_kind=TGI comparison_symbol=> reported_result=100
compound=CCN(CC)CCC(=O)c1ccc(Cl)c(Cl)c1 readout_kind=TGI comparison_symbol=> reported_result=100
compound=C=CCc1cc(O)ccc1O readout_kind=TGI comparison_symbol=> reported_result=100
compound="CC(=O)CCC[C@@H](C)[C@@H]1O[C@H]([C@@]2(C)CCC(=O)O2)CC2[C@H]1OC(=O)C21CC1 (stereo partly specified)" readout_kind=TGI comparison_symbol=> reported_result=100
compound=CCc1nc(N)nc(N)c1-c1ccc(N2CCNCC2)c([N+](=O)[O-])c1 readout_kind=TGI comparison_symbol== reported_result=58.8
compound="CC(=O)O[C@H]1[C@@H](OC2CCCC2(c2ccccc2)c2ccccc2)O[N+]([O-])=C[C@@H]1c1ccccc1 (stereo partly specified)" readout_kind=TGI comparison_symbol== reported_result=27.2
compound=COC(=O)NC1=Nc2ccccc2C(=O)NN1 readout_kind=TGI comparison_symbol=> reported_result=100
compound="CCOC(=O)C(Cc1ccccc1)n1c(O)c(/C=N/c2ncc(Cc3ccc(Cl)cc3Cl)s2)sc1=S (stereo unspecified)" readout_kind=TGI comparison_symbol== reported_result=42.3
compound=Oc1ccc(/C=N/NC(=S)Nc2ccccc2)nc1 readout_kind=TGI comparison_symbol=> reported_result=100
compound=Cc1cc(NS(=O)(=O)c2ccc(-c3cnc(C4CC4)o3)cc2)ccc1Cl readout_kind=TGI comparison_symbol== reported_result=11.7
compound="CC[C@]1(O)CC2CN(CCc3c([nH]c4ccccc34)C(C(=O)OC)(c3cc4c(cc3OC)N(C=O)[C@H]3[C@@](O)(C(=O)OC)[C@H](OC(C)=O)[C@]5(CC)[C@@H]6C[C@@H]6CN6CC[C@]43[C@@H]65)C2)C1 (stereo partly specified)" readout_kind=TGI comparison_symbol== reported_result=9.23
compound="Nc1nc2c(ncn2C2OC(CO)C(O)C2O)c(=O)o1 (stereo unspecified)" readout_kind=TGI comparison_symbol=> reported_result=100
compound=C[n+]1c(-c2ccc(/C=N\Nc3ccnc(N/N=C/c4ccc(-c5cn6ccsc6[n+]5C)cc4)n3)cc2)cn2ccsc21 readout_kind=TGI comparison_symbol== reported_result=77.2
compound=Cc1cc2c3c(nc4ccccc42)C(=O)c2cccnc2-c3n1 readout_kind=TGI comparison_symbol== reported_result=1.26
compound="COC(=O)C1=C(C)NC(CF)=C(C(=O)OC)C1c1cccc2c(=O)c3ccccc3oc12 (stereo unspecified)" readout_kind=TGI comparison_symbol=> reported_result=100

###

Test system: DU-145 prostate
Test: NCI tumour cell line growth inhibition, 48 h; in the data active = GI50 below about 0.43 µM; inactive = the rest
Possible outcomes: active, inactive

compound=CCN(CC)Cc1cc(Nc2ccnc3ccc(OC)cc23)ccc1O assigned_label=inactive
compound=CCCCNC(=O)CC1=C(C)/C(=C/c2[nH]c(-c3ccc[nH]3)cc2OC)N=C1C assigned_label=inactive
compound=COc1cc2c3c(n(CCCNCCCCN)c(=O)c2cc1OC)-c1cc2c(cc1C3=O)OCO2 assigned_label=active
compound=O=C(NNC1=NS(=O)(=O)c2ccccc2N1c1ccccc1)c1cnccn1 assigned_label=inactive
compound="N#Cc1c(-c2ccccc2)nc(SCC(O)CN2CCOCC2)nc1N1CCOCC1 (configuration not stated)" assigned_label=inactive
compound=C=C1CC[C@@](C)(c2cc(Br)c(C)cc2OC(C)=O)[C@H]1C assigned_label=inactive
compound=c1ccc(C2=Nc3ccccc3N3CNN=C23)cc1 assigned_label=inactive

###

TGI: recorded values
Test system: NCI-H460 lung
Experiment: NCI tumour cell line growth inhibition, 48 h
READOUT KIND: TGI

compound="CN(C)CC1CCCC/C1=N\\OC(=O)c1ccccc1 (stereo not given)" reported_result="> 100 µM"
compound="CC[C@]1(O)CC2CN(CCc3c([nH]c4ccccc34)C(C(=O)OC)(c3cc4c(cc3OC)N(C=O)[C@H]3[C@@](O)(C(=O)OC)[C@H](OC(C)=O)[C@]5(CC)[C@@H]6C[C@@H]6CN6CC[C@]43[C@@H]65)C2)C1 (stereo not given in full)" reported_result="> 11.2 µM"
compound=O=C(c1ccc(Cl)c(Cl)c1)N(C(=S)OC12CC3CC(CC(C3)C1)C2)c1ccccc1 reported_result="> 100 µM"
compound="C=C1C2CCCC1C1(S(C)(=O)=O)CCCCC21O (stereo not given)" reported_result="> 100 µM"
compound="CC1(C)CCC2(C(=O)O)C(O)CC3(C)C(=CCC4C5(C)CCC(OC6OCC(O)C(O)C6OC6OCC(O)C(O)C6OC6OCC(O)C(OC7OC(CO)C(O)C(O)C7O)C6O)C(C)(C)C5CCC43C)C2C1 (stereo not given)" reported_result="> 100 µM"

###

Tested on: KM12 colon
Assay: NCI tumour cell line growth inhibition, 48 h
*1 amine or outer side, *2 acyl side, *3 side chain or, on linkers, in order; H or OH if unused. Where a SMILES comes first, the peptide text is derived from it. Bridges are numbered along the chain shown (N, C = ends). Roman numbers before positions name the chains, in order. [ ]: non-standard residue; d: D form. Actinocin(1to9) = Cc1c2oc3c(C)ccc(C(=O)[*:2])c3nc-2c(C(=O)[*:1])c(N)c1=O; NMeV = CN[CH](C(=O)O)C(C)C; Sar = CNCC(=O)O
READOUT KIND: TGI

compound=CCP(C)(=O)CC target="KM12 colon" reported_result="> 100 µM"
compound=Cc1cccc2c(N)c3cccc(C(=O)NCCNCCN)c3nc12 target="KM12 colon" reported_result="> 100 µM"
compound="CCN(CC)CC(C(C)=O)C(c1ccccc1)c1c(O)c2ccccc2oc1=O (centres undefined)" target="KM12 colon" reported_result="> 100 µM"
compound="C=C1C2CCCC1C1(S(C)(=O)=O)CCCCC21O (centres undefined)" target="KM12 colon" reported_result="> 100 µM"
compound="[N-]=[N+]=NC1(Cc2ccccc2)C(=O)Nc2ccccc2C1=O (centres undefined)" target="KM12 colon" reported_result="> 100 µM"
compound=O=C(Cn1c2ccc(Br)cc2c2nc3ccccc3nc21)NNC(=O)NC1CCCCC1 target="KM12 colon" reported_result="> 100 µM"
compound=CC(=O)Nn1c(Cc2ccc(Cl)cc2)nn(C)c1=O target="KM12 colon" reported_result="> 100 µM"
compound="NC(=S)N/N=C/C(O[C@@H](/C=N/NC(N)=S)CO)n1cnc2c(N)ncnc21 (some centres undefined)" target="KM12 colon" reported_result="> 100 µM"
compound=CSc1ncc2c(C#N)c3n(C)c4ccccc4n3c(=O)c2n1 target="KM12 colon" reported_result="> 100 µM"
compound=Cc1cc2c(cc1Cl)SC(NNC(=O)c1ccccc1)=NS2(=O)=O target="KM12 colon" reported_result="> 10 µM"
compound=O=Nn1c2ccccc2c2ccccc21 target="KM12 colon" reported_result="> 100 µM"
compound=NC(=O)NC(=O)Nc1ccc(Br)cc1 target="KM12 colon" reported_result="> 32.8 µM"
compound="COC(=O)C1=C(C)NC(CF)=C(C(=O)OC)C1c1cccc2c(=O)c3ccccc3oc12 (centres undefined)" target="KM12 colon" reported_result="> 100 µM"
compound=CC(=O)OC/C=C\Cn1ncc(=O)[nH]c1=O target="KM12 colon" reported_result="31.3 µM"
compound="NC(N)=NCCCC(Nc1c2ccccc2nc2ccccc12)C(=O)O (centres undefined)" target="KM12 colon" reported_result="> 100 µM"
compound="COc1cc(O)c2c(c1C)C(C)(O)c1c(C)coc1C2=O (centres undefined)" target="KM12 colon" reported_result="> 100 µM"
compound=CC(=O)[CH-]C(=O)c1ccccc1.CC(=O)[CH-]C(=O)c1ccccc1.CC(=O)[CH-]C(=O)c1ccccc1.[Cl-].[Hf+4] target="KM12 colon" reported_result="> 100 µM"
compound="C=C(C)C1Cc2c(cc3c(c2O)c(=O)c2ccccc2n3C)O1 (centres undefined)" target="KM12 colon" reported_result="5.75 µM"
compound=O=C(O)c1cc(-c2ccc(-c3ccccc3)cc2)nc2cc3ccccc3cc12 target="KM12 colon" reported_result="> 100 µM"
compound=COC(=O)CSc1cc(Cl)c(C)cc1S(=O)(=O)Nc1n[nH]c(N)n1 target="KM12 colon" reported_result="> 10 µM"
compound="Cc1ccc(NC(=O)CC(=O)N2N=C(N(c3ccccc3)c3ccccc3)CC2c2ccccc2)cc1 (centres undefined)" target="KM12 colon" reported_result="> 100 µM"
compound="COc1ccc(CC2NC(=O)C(NC(=O)c3c4nc5c(C(=O)NC6C(=O)NC(Cc7ccc(OC)cc7)C(=O)N7CCCC7C(=O)N(C)CC(=O)N(C)C(C(C)C)C(=O)OC6C)ccc(C)c5oc-4c(C)c(=O)c3N)C(C)OC(=O)C(C(C)C)N(C)C(=O)CN(C)C(=O)C3CCCN3C2=O)cc1 (centres undefined) (I: TY(Me)P[Sar][NMeV] / II: TY(Me)P[Sar][NMeV]; ester I:1-I:C, II:1-II:C; linker I:N-II:N via Actinocin(1to9); configuration not given here)" target="KM12 colon" reported_result="1.06 µM"
compound=O=C(CNc1ccc([N+](=O)[O-])cc1)Nn1c(-c2ccccc2)nc2ccccc2c1=O target="KM12 colon" reported_result="15.9 µM"
compound=Cn1cc(Nc2nccc(-c3ccc4c(c3)CN(C3COC3)CC[C@H]4NC(=O)c3cn(C(C)(C)C)nn3)n2)cn1 target="KM12 colon" reported_result="> 100 µM"
